- System: Escherichia coli TOP10;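 further: peptides expressed intracellularly from a pBAD plasmid library in pooled LB shake-flask culture, induced with 0.3% L-arabinose, DNA abundance read by NGS, three biological replicates, DESeq2 with apeglm shrinkage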
- experimentNotes: shrunken log2 fold change of peptide-encoding DNA abundance (4.5 h post-induction vs induction); higher = less antimicrobial activity (less host growth inhibition)
- conditionParameters: time post-induction: 4.5 h; library: site-saturation at positions 5, 18, 19, 20
measure: shrunken log2 fold change

seqString	measure	testValue
RRIRNRPPRLPRPRPRPVSRPRP	shrunken log2 fold change	-0.152
RRIRDRPPRLPRPRPRPQDCPRP	shrunken log2 fold change	-0.00195
RRIRVRPPRLPRPRPRPTCHPRP	shrunken log2 fold change	-0.0606
RRIRDRPPRLPRPRPRPSKGPRP	shrunken log2 fold change	-0.0731
RRIRKRPPRLPRPRPRPHHCPRP	shrunken log2 fold change	0.0484
RRIRPRPPRLPRPRPRPALHPRP	shrunken log2 fold change	0.681
RRIRNRPPRLPRPRPRPVDMPRP	shrunken log2 fold change	-0.104
RRIRIRPPRLPRPRPRPRDGPRP	shrunken log2 fold change	0.575
RRIRLRPPRLPRPRPRPVCMPRP	shrunken log2 fold change	-0.246
RRIRKRPPRLPRPRPRPRVEPRP	shrunken log2 fold change	0.144
RRIRIRPPRLPRPRPRPTVLPRP	shrunken log2 fold change	-0.369
RRIRQRPPRLPRPRPRPVWVPRP	shrunken log2 fold change	0.0799
RRIRPRPPRLPRPRPRPIVSPRP	shrunken log2 fold change	-0.117
RRIRKRPPRLPRPRPRPGHLPRP	shrunken log2 fold change	0.0738
RRIRPRPPRLPRPRPRPANPPRP	shrunken log2 fold change	0.13

Data credit: the supplement of paper PMC9112550
